# TARGET: T1, Human C5 (human, UniProt P01031 19-1676)
# T1 construct: The natural protein has a beta and an alpha chain; also called complement factor 5; complement component 5
# TEST METHOD NOTES: SPR, mAb captured by anti-hFc, 37C
Listing of recorded t½ by entry.
Lab book: enter the figure in min, no units written.

BINDER: H4H11683N (antibody, human IgG4, V domains shown, also called H2M11683N) VH: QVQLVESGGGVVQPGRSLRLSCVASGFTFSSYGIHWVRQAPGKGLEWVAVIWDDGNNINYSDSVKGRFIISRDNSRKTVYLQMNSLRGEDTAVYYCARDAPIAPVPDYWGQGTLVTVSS VL: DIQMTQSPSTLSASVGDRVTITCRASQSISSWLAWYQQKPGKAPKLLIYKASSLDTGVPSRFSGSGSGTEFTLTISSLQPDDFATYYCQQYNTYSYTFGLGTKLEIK
OUTPUT UNIT: min
t½: 48
--
BINDER: H4H12171P (antibody, human IgG4, V domains shown) VH: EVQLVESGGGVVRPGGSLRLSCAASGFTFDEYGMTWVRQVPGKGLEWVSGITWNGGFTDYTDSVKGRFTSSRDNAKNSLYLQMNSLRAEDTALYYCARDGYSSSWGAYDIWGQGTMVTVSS VL: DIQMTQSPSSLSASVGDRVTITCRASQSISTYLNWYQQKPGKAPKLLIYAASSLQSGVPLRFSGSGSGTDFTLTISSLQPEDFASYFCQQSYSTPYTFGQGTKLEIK
OUTPUT UNIT: min
t½: 15
--
BINDER: H4H12175P (antibody, human IgG4, V domains shown) VH: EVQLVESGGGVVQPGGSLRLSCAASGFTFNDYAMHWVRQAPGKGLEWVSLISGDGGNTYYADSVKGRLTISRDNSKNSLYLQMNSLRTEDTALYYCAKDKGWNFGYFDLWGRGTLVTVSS VL: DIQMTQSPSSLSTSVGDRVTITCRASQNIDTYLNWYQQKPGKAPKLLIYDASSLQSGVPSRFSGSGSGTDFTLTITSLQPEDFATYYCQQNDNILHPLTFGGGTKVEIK
OUTPUT UNIT: min
t½: 18

So for H4H12170P (antibody, human IgG4, V domains shown) VH: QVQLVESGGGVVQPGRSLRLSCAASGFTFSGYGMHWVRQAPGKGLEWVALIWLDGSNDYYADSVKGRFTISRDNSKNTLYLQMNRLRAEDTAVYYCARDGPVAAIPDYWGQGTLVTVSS VL: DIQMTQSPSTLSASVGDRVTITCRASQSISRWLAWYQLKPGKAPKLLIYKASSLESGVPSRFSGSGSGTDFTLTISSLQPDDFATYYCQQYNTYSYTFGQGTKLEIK , the logged t½ turned out to be 28

So for H4H12164P (antibody, human IgG4, V domains shown) VH: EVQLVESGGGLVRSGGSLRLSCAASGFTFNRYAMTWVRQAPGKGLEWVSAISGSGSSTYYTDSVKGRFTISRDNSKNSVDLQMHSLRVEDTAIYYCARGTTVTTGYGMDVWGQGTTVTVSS VL: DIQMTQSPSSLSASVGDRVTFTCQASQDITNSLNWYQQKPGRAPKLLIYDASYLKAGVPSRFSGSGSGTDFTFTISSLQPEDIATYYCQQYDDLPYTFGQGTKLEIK , the logged t½ turned out to be 90

The measured values listed here are drawn from patent US20170355757A1.
